System: 171881-019-R-J1-PDC multicell spheroid viability
Experiment: Anticancer human tumor 171881-019-R-J1-PDC patient-derived invasive breast carcinoma cell line growth inhibition [IpAb]
Conditions: second compound 3.16 µM; first compound 10 µM; stronger effect = lower value
observation.type: viability, T/C (%)
Your answer should be a plain number; it is taken to be in %.

Entry C=CC(=O)N1CCN(c2nc(=O)n(-c3c(C)ccnc3C(C)C)c3nc(-c4c(O)cccc4F)c(F)cc23)C(C)C1 (configuration not stated) + CC(C)NCC(C(=O)N1CCN(c2ncnc3c2C(C)CC3O)CC1)c1ccc(Cl)cc1 needs its viability, T/C filled in; supply it. 4.11

Report measured viability, T/C; entry is CCCS(=O)(=O)Nc1ccc(F)c(C(=O)c2c[nH]c3ncc(-c4ccc(Cl)cc4)cc23)c1F + CC(C)NCC(C(=O)N1CCN(c2ncnc3c2C(C)CC3O)CC1)c1ccc(Cl)cc1 24.1

Provide only the value of recorded viability, T/C for CC1(C)CCC(CN2CCN(c3ccc(C(=O)NS(=O)(=O)c4ccc(NCC5CCOCC5)c([N+](=O)[O-])c4)c(Oc4cnc5[nH]ccc5c4)c3)CC2)=C(c2ccc(Cl)cc2)C1 + CC(C)NCC(C(=O)N1CCN(c2ncnc3c2C(C)CC3O)CC1)c1ccc(Cl)cc1 5.33

Return viability, T/C (reported value) for this compound: Cn1ncc(Cl)c1-c1cc(C(=O)NC(CN)Cc2cccc(F)c2)sc1Cl (configuration not stated) + CC(C)NCC(C(=O)N1CCN(c2ncnc3c2C(C)CC3O)CC1)c1ccc(Cl)cc1 0.25

Return the recorded viability, T/C value; entry: Cc1nc(NC(=O)N2CCCC2C(N)=O)sc1-c1ccnc(C(C)(C)C(F)(F)F)c1 (configuration not stated) + CC(C)NCC(C(=O)N1CCN(c2ncnc3c2C(C)CC3O)CC1)c1ccc(Cl)cc1 0.74

Note down viability, T/C recorded for C=CCn1c(=O)c2cnc(Nc3ccc(N4CCN(C)CC4)cc3)nc2n1-c1cccc(C(C)(C)O)n1 + CC(C)NCC(C(=O)N1CCN(c2ncnc3c2C(C)CC3O)CC1)c1ccc(Cl)cc1 8.03

Hello, please tell me recorded viability, T/C for this one: Cn1nccc1Nc1nccc(-c2ccn(C(CO)c3ccc(Cl)c(F)c3)c(=O)c2)n1 (configuration not stated) + CC(C)NCC(C(=O)N1CCN(c2ncnc3c2C(C)CC3O)CC1)c1ccc(Cl)cc1 0.94

----------
For each record, write down the corresponding viability, T/C.
Test system: 171881-019-R-J1-PDC multicell spheroid viability
Assay: Anticancer human tumor 171881-019-R-J1-PDC cell line growth inhibition [IpAb];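 note: spheroids exposed to the agents for seven days before readout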
Conditions: second compound 0.316 µM; first compound 0.0316 µM; stronger effect = lower value
Reply with just the number (in %).

For COc1c(OCCCN2CCOCC2)ccc2c3n(c(=NC(=O)c4cnc(N)nc4)nc12)CCN3 + CC(C)NCC(C(=O)N1CCN(c2ncnc3c2C(C)CC3O)CC1)c1ccc(Cl)cc1 , write its viability, T/C. 16.9

Quickly give me recorded viability, T/C for C=CC(=O)N1CCN(c2nc(=O)n(-c3c(C)ccnc3C(C)C)c3nc(-c4c(O)cccc4F)c(F)cc23)C(C)C1 (centres undefined) + CCN1CCN(Cc2ccc(Nc3ncc(F)c(-c4cc(F)c5nc(C)n(C(C)C)c5c4)n3)nc2)CC1 136

Determine from records and report viability, T/C for CC(C)n1nc(-c2ccc3oc(N)nc3c2)c2c(N)ncnc21 + CCN1CCN(Cc2ccc(Nc3ncc(F)c(-c4cc(F)c5nc(C)n(C(C)C)c5c4)n3)nc2)CC1 9.75

Look up and state reported viability, T/C for Cn1nccc1Nc1nccc(-c2ccn(C(CO)c3ccc(Cl)c(F)c3)c(=O)c2)n1 (centres undefined) + CC(C)NCC(C(=O)N1CCN(c2ncnc3c2C(C)CC3O)CC1)c1ccc(Cl)cc1 69.1

Where these numbers come from: PubChem BioAssay AID2060342
